Data origin: paper PMC8831520

system.name: ICl,SWELL (SWELL1-LRRC8 channel) in HEK-293 cells (Homo sapiens, UniProt Q8IWT6)
Construct: applied when the endogenous HEK-293 cell ICl,SWELL current density reached 30 pA/pF; endogenous in cells; host or cells: HEK-293 (ATCC, #CRL-1573)
Sequence (Q8IWT6 1-810): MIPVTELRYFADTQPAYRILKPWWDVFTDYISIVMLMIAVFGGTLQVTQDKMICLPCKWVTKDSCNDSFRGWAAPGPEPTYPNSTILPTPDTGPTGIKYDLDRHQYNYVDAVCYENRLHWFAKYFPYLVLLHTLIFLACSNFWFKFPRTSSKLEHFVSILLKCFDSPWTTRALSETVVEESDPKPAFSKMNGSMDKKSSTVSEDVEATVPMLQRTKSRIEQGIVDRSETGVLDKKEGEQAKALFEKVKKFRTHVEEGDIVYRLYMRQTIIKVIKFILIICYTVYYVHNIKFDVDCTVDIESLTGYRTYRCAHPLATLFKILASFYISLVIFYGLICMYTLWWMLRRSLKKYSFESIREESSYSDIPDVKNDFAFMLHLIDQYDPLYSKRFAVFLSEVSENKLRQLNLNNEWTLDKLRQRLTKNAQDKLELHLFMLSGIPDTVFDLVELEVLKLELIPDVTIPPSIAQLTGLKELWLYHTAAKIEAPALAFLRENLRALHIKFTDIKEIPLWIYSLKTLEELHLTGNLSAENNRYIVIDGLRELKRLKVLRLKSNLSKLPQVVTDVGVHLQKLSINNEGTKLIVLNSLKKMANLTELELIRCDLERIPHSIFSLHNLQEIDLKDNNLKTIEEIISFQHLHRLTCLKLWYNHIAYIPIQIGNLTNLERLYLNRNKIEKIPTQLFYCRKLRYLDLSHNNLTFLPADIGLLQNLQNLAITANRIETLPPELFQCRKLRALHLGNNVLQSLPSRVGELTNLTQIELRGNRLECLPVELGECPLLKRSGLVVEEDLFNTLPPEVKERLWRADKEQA
protocol.details: ICl,SWELL inhibition after hypotonic activation (open channel), patch-clamp
Assay type: cell-based
measurement.conditions: HEK-293 cells, hypotonic (210 mOsm) stimulation, outward current, compound applied at 30 pA/pF; read-out: IC50 for ICl,SWELL inhibition
Please respond with reported pIC50 for every item in the list.
Give bare numbers, as −log10 of the molar value.

Let me know recorded pIC50 for CCCCC1(C2CCCC2)Cc2cc(OCCCCCC(=O)O)c(Cl)c(Cl)c2C1=O (centres unmarked) [SN-406] , thanks.
5.51

Let me know recorded pIC50 for O=C(O)CCCOc1cc2c(c(Cl)c1Cl)C(=O)C(C1CCCC1)C2 (centres unmarked) [Inactive 2] , thanks.
4.97

Let me know recorded pIC50 for CCCCC1(C2CCCC2)Cc2cc(OCC(=O)O)c(Cl)c(Cl)c2C1=O (centres unmarked) [Inactive 1] , thanks.
4.45

Let me know recorded pIC50 for CCCCC1(C2CCCC2)Cc2cc(OCCCCCCC(=O)O)c(Cl)c(Cl)c2C1=O (centres unmarked) [SN-407] , thanks.
5.80

API: the following record is the query input.
Let me know recorded pIC50 for CCCCC1(C2CCCC2)Cc2cc(OCCCB(O)O)c(Cl)c(Cl)c2C1=O (centres unmarked) [Inactive 3] , thanks.
4.74
